Test conditions: in water, 308.15 K

{"columns": ["Structure string", "solubility (mole fraction)"],
 "data": [
  ["COc1cc(C=O)ccc1O", 0.00202]
]}

* * *

Test conditions: in water, 293.15 K

{"columns": ["Structure string", "solubility (mole fraction)"],
 "data": [
  ["COc1cc(C=O)ccc1O", 0.00116]
]}

* * *

Test conditions: in water, 298.15 K
Assay readout: solubility (mole fraction)

{"columns": ["Structure string", "Meas value"],
 "data": [
  ["COc1cc(C=O)ccc1O", 0.00141]
]}

* * *

Test conditions: in water, 318.15 K

{"columns": ["Structure string", "solubility (mole fraction)"],
 "data": [
  ["COc1cc(C=O)ccc1O", 0.00267]
]}
